# System: Salmonella enterica serovar Typhimurium CECT 443
# test-summary: Antibacterial MIC/MBC (broth microdilution)
# Type: cell-based
# settings: read-out: MIC
# Experimental: Twelve reference bacterial strains and nine MDR clinically relevant bacterial strains were used in this study. […] Strains were kept in Trypto-Casein Soy agar (TSA—Biokar Diagnostics, Allone, Beauvais, France) slants and, before each assay, were sub-cultured in Mueller-Hinton agar (MHA—Biokar Diagnostics, Allone, Beauvais, France). […] The minimal bactericidal concentration (MBC) was determined by spreading 100 μL of the content of the wells with no visible growth on MH plates. […]
measurement-name: MIC

Worked examples follow.
INSERT INTO measurements (smiles, measurement_name, reported) VALUES
  ('C[C@H](CCC(=O)N1CCN(C(=O)CC[C@H](C)[C@@H]2CC[C@@H]3[C@H]4CC[C@H]5C[C@@H](O)CC[C@@]5(C)[C@@H]4C[C@@H](O)[C@]32C)CC1)[C@H]1CC[C@H]2[C@@H]3CC[C@@H]4C[C@H](O)CC[C@]4(C)[C@H]3C[C@H](O)[C@]12C', 'MIC', '64 µg/mL'),
  ('C[C@H](CCC(=O)N1CCN(C(=O)OC(C)(C)C)CC1)[C@H]1CC[C@H]2[C@@H]3CC[C@@H]4C[C@H](O)CC[C@]4(C)[C@H]3C[C@H](O)[C@]12C', 'MIC', '> 64 µg/mL'),
  ('C[C@H](CCC(=O)N1CCCCC1)[C@H]1CC[C@H]2[C@@H]3CC[C@@H]4C[C@H](O)CC[C@]4(C)[C@H]3C[C@H](O)[C@]12C', 'MIC', '> 64 µg/mL');

With those in mind, consider the next compound.
// MIC value for C[C@H](CCC(=O)N1CCOCC1)[C@H]1CC[C@H]2[C@@H]3CC[C@@H]4C[C@H](O)CC[C@]4(C)[C@H]3C[C@H](O)[C@]12C : > 64 µg/mL

----------
# System: C. jejuni 4433
# test-summary: Antibacterial MIC/MBC (broth microdilution)
# Assay type: cell-based, Campylobacter jejuni
# settings: Campylobacter jejuni, read-out: MIC
measurement-name: MIC

Please look at the items below and tell me MIC for each one, in order.
1. C[C@H](CCC(=O)NCCNc1ccccc1)[C@H]1CC[C@H]2[C@@H]3CC[C@@H]4C[C@H](O)CC[C@]4(C)[C@H]3C[C@H](O)[C@]12C [Compound 8]
2. C[C@H](CCC(=O)N1CCN(C(=O)CC[C@H](C)[C@@H]2CC[C@@H]3[C@H]4CC[C@H]5C[C@@H](O)CC[C@@]5(C)[C@@H]4C[C@@H](O)[C@]32C)CC1)[C@H]1CC[C@H]2[C@@H]3CC[C@@H]4C[C@H](O)CC[C@]4(C)[C@H]3C[C@H](O)[C@]12C [Compound 4]
3. CCN(CC)CCNC(=O)CC[C@@H](C)[C@H]1CC[C@H]2[C@@H]3CC[C@@H]4C[C@H](O)CC[C@]4(C)[C@H]3C[C@H](O)[C@]12C [Compound 6]

> 64 µg/mL
> 64 µg/mL
> 64 µg/mL

----------
# Tested on: Salmonella enterica serovar Typhimurium CECT 443
# test-summary: Antibacterial MIC/MBC (broth microdilution)
# Assay type: cell-based
# settings: read-out: MIC
Exercise: state measured MIC for each of the molecules provided.

INSERT INTO measurements (smiles, measurement_name, reported) VALUES
  ('C[C@H](CCC(=O)N1CCNCC1)[C@H]1CC[C@H]2[C@@H]3CC[C@@H]4C[C@H](O)CC[C@]4(C)[C@H]3C[C@H](O)[C@]12C', 'MIC', '64 µg/mL'),
  ('CCN(CC)CCNC(=O)CC[C@@H](C)[C@H]1CC[C@H]2[C@@H]3CC[C@@H]4C[C@H](O)CC[C@]4(C)[C@H]3C[C@H](O)[C@]12C', 'MIC', '> 64 µg/mL');

Pending molecule:
Reported MIC for C[C@H](CCC(=O)NCCNc1ccccc1)[C@H]1CC[C@H]2[C@@H]3CC[C@@H]4C[C@H](O)CC[C@]4(C)[C@H]3C[C@H](O)[C@]12C was > 64 µg/mL
